Examples of compounds with documented normalized growth follow.
assay: chemical genetic growth profiling, strain panel (AID 1159580);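 further: tested at 20 µM; growth read once vehicle control cultures reached saturation at 30 °C; 1 = growth at the plate median or of vehicle wells; lower values mean less growth of the strain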; conditions: S. cerevisiae deletion strains, growth OD, locus YGR092W, strain DBF2, active compounds read low
Hit rate of the full screen: of about 5,500 compounds, about 2,000 (36%) were called active. About 18% were inconclusive and are not listed. This is one part of the list.
Please state the value as a number alone, without comment.

// known answers, use as guide
C(=NC(N=Cc1ccccc1)c1ccccc1)c1ccccc1 (stereo unspecified)	0.974
COC(=O)c1ccc(Oc2c(C(F)(F)F)oc3cc(O)ccc3c2=O)cc1	0.948
O=C1OC(Nc2ccccc2SCc2ccccc2Cl)c2ccccc21 (stereo unspecified)	0.855
CCOC(=O)C(NC(C)=O)(Nc1ccc(F)c(Cl)c1)C(F)(F)F (stereo unspecified)	0.97
CC(=O)Oc1ccc2c(=O)c(Oc3ccc(Cl)cc3)c(C)oc2c1	0.692
O=C(NCc1ccc(F)c(Cl)c1)Nc1csc([N+](=O)[O-])c1	0.96
CC(/C=C/c1ccccc1)=N/OC(=O)c1ccccc1Cl	0.874
N#CC(C#N)=NNc1ccc(C(F)(F)F)cc1	0.105
CCCCCc1ccc(S(=O)(=O)Nc2ncc(C)cc2Br)cc1	0.769
N#C/C(=C\c1ccc(C(F)(F)F)cc1)c1ccc(O)cc1	0.365

Next item in the queue.
### Prompt Report normalized growth for N#CC(C#N)=NNc1cc(C(F)(F)F)ccc1OCC(F)(F)F please.
### Response 0.818

###

experiment: chemical genetic growth profiling, strain panel (AID 1159580);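 further: tested at 20 µM; growth read once vehicle control cultures reached saturation at 30 °C; 1 = growth at the plate median or of vehicle wells; lower values mean less growth of the strain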; settings: S. cerevisiae deletion strains, growth OD, locus YLR418C, strain cdc73, active compounds read low
Hit rate of the full screen: of about 5,500 compounds, about 2,000 (36%) were called active. Inconclusive results (about 18%) are left out. The list shows a part of the results.
Examples of molecules with documented normalized growth follow.
Please state the value as a number alone, without comment.

// known answers, use as guide
CC(=O)OC1CCC23C(=O)OC45CCC(C6=CC(=O)OC6)C4(C)CCC2C5CCC3(O)C1 (stereo not drawn)	1.06
COc1cc(OC)c2c(c1Cl)OC1(C2=O)C(O)=CC(=O)CC1C (stereo not drawn)	0.992

### Prompt Report normalized growth for CC(C)CCCC(C)C1CCC2C3CCC4CC(=O)CCC4(C)C3CCC12C (stereo not drawn) please.
### Response 1.05

### Prompt Report normalized growth for C[N+]1(C)C2CC[C@H]1CC(OC(=O)C(O)c1ccccc1)C2 (stereo partly drawn) please.
### Response 1.05

### Prompt Report normalized growth for C/C=C(\C)C(=O)OC1[C@@H]2C=C3C4CC(=O)O[C@@H](c5ccoc5)[C@]4(C)CCC3[C@@](C)(C2=O)[C@@H](C(O)C(=O)OC)C1(C)C (stereo partly drawn) please.
### Response 1.05

### Prompt Report normalized growth for C[C@H]1C(=O)O[C@@H]2CCN3CC=C(COC(=O)[C@](C)(O)[C@]1(C)O)[C@H]23 please.
### Response 0.985

### Prompt Report normalized growth for COC(=O)C1=CO[C@@H](O[C@@H]2O[C@H](CO)[C@@H](O)[C@H](O)[C@H]2O)[C@@H]2[C@@H](C)[C@@H](O)C[C@H]12 please.
### Response 1.04

### Prompt Report normalized growth for CC1=C(C(=O)O)N2C(=O)[C@@H](NC(=O)[C@H](N)C3=CCC=CC3)C2SC1 (stereo partly drawn) please.
### Response 1.01
